Test Method Notes: blockers of ER-stress CHOP reporter expression – cell-based, unfolded protein response, luciferase reporter, primary screen (AID 2732);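 note: 0% = tunicamycin plus vehicle and 100% = wells without tunicamycin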
Measurement Conditions: CHO-K1 CHOP-promoter luciferase, tunicamycin-induced, 15-18 h; at 10 µM; hits give high values
The whole screen tested about 220,000 compounds, of which about 8,200 (3.7%) were called active. The sample holds actives, similar compounds and a random draw of the others, so the mix is not that of the screen.
Kindly state inhibition for each of the entries shown.
Your answer should be a plain number; it is taken to be in %.

Recorded inhibition (compound "Nc1nc(Nc2ccccc2)nc(NCCO)c1[N+](=O)[O-]" ): -4.79

Recorded inhibition (compound "CNc1ccc([N+](=O)[O-])cc1C(=O)O" ): -14.2

Recorded inhibition (compound "COc1ccccc1N1CCN(C(=O)CSc2ncnc3c2cnn3-c2ccc(C)c(C)c2)CC1" ): -4.74

Recorded inhibition (compound "CNc1nc(Nc2ccc(C)c(Cl)c2)nc(N)c1[N+](=O)[O-]" ): 81.6

Recorded inhibition (compound "Cc1ccc(Oc2nc(-c3ccccn3)nc3ccccc23)cc1" ): -40.5

Recorded inhibition (compound "COc1cc(/C=C2/C(=O)NN(c3ccc(F)cc3)C2=O)cc([N+](=O)[O-])c1O" ): 0.68

* * *

Kindly state inhibition for each of the entries shown.
Test Method Notes: blockers of ER-stress CHOP reporter expression – cell-based, unfolded protein response, luciferase reporter, primary screen (AID 2732);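 note: 0% = tunicamycin plus vehicle and 100% = wells without tunicamycin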
Measurement Conditions: CHO-K1 CHOP-promoter luciferase, tunicamycin-induced, 15-18 h; at 10 µM; hits give high values
Among all 220,000 compounds or so, about 8,200 (3.7%) were called active. Many of the other results were omitted from the sample, so actives are more common in it than they were.
Your answer should be a plain number; it is taken to be in %.

Recorded inhibition (molecule "COCCN(Cc1cc2cc3c(cc2nc1Cl)OCO3)C(=O)c1cccc(C)c1" ): 27.4

Recorded inhibition (molecule CCOC(=O)C1=C(CN2CCCCCC2)NC(=O)NC1c1cccc([N+](=O)[O-])c1 (stereo not given) ): -12.3

Recorded inhibition (molecule "CCn1c(CN2C(=O)CSc3ccccc32)n[nH]c1=S" ): 11.5

Recorded inhibition (molecule "O=C(N/N=C/c1cccc2cccnc12)[C@H]1C[C@@H]1c1ccccc1" ): 52.4

Recorded inhibition (molecule CCOC(=O)C1=C(CN2CCc3ccccc32)NC(=O)NC1c1ccc(Cl)cc1 (stereo not given) ): 85.1

* * *

Test Method Notes: blockers of ER-stress CHOP reporter expression – cell-based, unfolded protein response, luciferase reporter, primary screen (AID 2732);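 note: 0% = tunicamycin plus vehicle and 100% = wells without tunicamycin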
Measurement Conditions: CHO-K1 CHOP-promoter luciferase, tunicamycin-induced, 15-18 h; at 10 µM
Hit rate of the full screen: of about 220,000 compounds, about 8,200 (3.7%) were called active.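 The calls were made as follows: active = compounds that reduced the stress-induced luciferase reporter signal by more than about 70% of percent inhibition (limit read from the data); inactive = the rest.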 The sample as a whole holds a higher share of actives than the screen did.
Hello, when you answer, please use one of the following outcomes: y (active), n (inactive)

stdin: What did this assay record as the result for "S=c1[nH]nc(-c2ccccc2)n1/N=C/c1c[nH]c2ccccc12" ?
stdout: n

stdin: What did this assay record as the result for "CCOC(=O)c1c(N)nn(C(=O)c2ccccc2)c1-c1ccccc1" ?
stdout: y

stdin: What did this assay record as the result for "N#C/C(=C\N1CCOCC1)S(=O)(=O)c1ccc(Cl)cc1" ?
stdout: n

stdin: What did this assay record as the result for "CCOC(=O)c1c(-c2cccc(N)c2)cn2ccccc12" ?
stdout: n

stdin: What did this assay record as the result for "CCc1cccc(CC)c1NC(=S)Nc1ccc2cn[nH]c2c1" ?
stdout: n

stdin: What did this assay record as the result for "Cc1nc2nc(SCC(=O)c3ccccc3)[nH]c2cc1Br" ?
stdout: n

* * *

Test Method Notes: blockers of ER-stress CHOP reporter expression – cell-based, unfolded protein response, luciferase reporter, primary screen (AID 2732);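 note: 0% = tunicamycin plus vehicle and 100% = wells without tunicamycin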
Measurement Conditions: CHO-K1 CHOP-promoter luciferase, tunicamycin-induced, 15-18 h; at 10 µM
Hit rate of the full screen: of about 220,000 compounds, about 8,200 (3.7%) were called active.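 The calls were made as follows: active = compounds that reduced the stress-induced luciferase reporter signal by more than about 70% of percent inhibition (limit read from the data); inactive = the rest.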 Only a selection was taken, and actives are over-represented in it overall.
Hello, when you answer, please use one of the following outcomes: active, inactive

stdin: What did this assay record as the result for "COc1cccc(C(=O)n2ccc(-c3cccs3)n2)c1" ?
stdout: inactive

stdin: What did this assay record as the result for "CC(C)Cn1c(CN(Cc2ccccc2)Cc2ccccc2)nc2c1c(=O)n(C)c(=O)n2C" ?
stdout: active

stdin: What did this assay record as the result for "Cc1nc(Nc2ccc3c(c2)OCCO3)c2nnn(Cc3ccccc3Cl)c2n1" ?
stdout: inactive

stdin: What did this assay record as the result for "CC(C)CCn1c(CN(C)Cc2ccccc2)nc2c1c(=O)n(C)c(=O)n2C" ?
stdout: inactive

stdin: What did this assay record as the result for CC(=O)c1ccc(NC(=O)C2CC(=O)Nc3nc4ccccc4n32)cc1 (stereo not given) ?
stdout: inactive

stdin: What did this assay record as the result for Cc1nn(-c2ccccc2)c2sc(C(=O)N(Cc3ccco3)C(C)C(=O)NC(C)(C)C)cc12 (stereo not given) ?
stdout: active

stdin: What did this assay record as the result for Cc1ccc(-c2nnn(CC(=O)N(Cc3ccco3)C(C(=O)NC(C)(C)C)c3ccncc3)n2)o1 (stereo not given) ?
stdout: inactive

stdin: What did this assay record as the result for CC1=NNC(=O)C1CC(=O)N/N=C/c1ccncc1 (stereo not given) ?
stdout: inactive

stdin: What did this assay record as the result for "COCCn1c(CN(Cc2ccccc2)Cc2ccccc2)nc2c1c(=O)n(C)c(=O)n2C" ?
stdout: inactive

stdin: What did this assay record as the result for "CCCc1nc(NCc2ccc3c(c2)OCO3)c2nnn(Cc3ccccc3Cl)c2n1" ?
stdout: active

* * *

Test Method Notes: blockers of ER-stress CHOP reporter expression – cell-based, unfolded protein response, luciferase reporter, primary screen (AID 2732);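 note: 0% = tunicamycin plus vehicle and 100% = wells without tunicamycin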
Measurement Conditions: CHO-K1 CHOP-promoter luciferase, tunicamycin-induced, 15-18 h; at 10 µM; hits give high values
Among all 220,000 compounds or so, about 8,200 (3.7%) were called active. This excerpt belongs to a sample that is enriched for actives.
Kindly state inhibition for each of the entries shown.
Your answer should be a plain number; it is taken to be in %.

Recorded inhibition (molecule "Fc1ccc(/C=N/Nc2nc(-c3cccnc3)nc3ccccc23)cc1" ): 1.02

Recorded inhibition (molecule O=C(O)C(NS(=O)(=O)c1cccc2nsnc12)c1ccccc1 (stereo unspecified) ): 16

Recorded inhibition (molecule "Cn1cccc1-c1nc2ccccc2n1C" ): -2.65

Recorded inhibition (molecule "FC(F)(F)c1cc(-c2ccco2)nc(NCc2ccc(Cl)cc2)n1" ): 81.4

Recorded inhibition (molecule "COc1ccc(C(=O)O/N=C(\N)Cc2ccc(Cl)cc2Cl)cc1OC" ): 60.4

Recorded inhibition (molecule "O=C(Nc1ccccc1)O/N=C1/CCCc2occc21" ): -8.45

Recorded inhibition (molecule "CCCc1nc(-c2cc3cc(C)ccc3[nH]c2=O)no1" ): 14.6

Recorded inhibition (molecule "Cn1c(=O)c(=O)n(C)c2cc(S(=O)(=O)NCCN3CCN(c4ccccc4F)CC3)ccc21" ): 10.2

Recorded inhibition (molecule "Cc1ccc(OCc2nnc(NC(=O)OCC(C)C)s2)cc1" ): 91

Recorded inhibition (molecule CC1CC2C3CCC4=CC(=O)C=C[C@]4(C)[C@@]3(F)[C@@H](O)C[C@]2(C)[C@@]1(O)C(=O)CO (stereo partly specified) ): 4.18

Recorded inhibition (molecule Cc1cccc(C2C3=C(CCCC3=O)N=C3c4ccccc4C(=O)C32)c1 (stereo unspecified) ): 19.4

Recorded inhibition (molecule "Cc1ccc2[nH]c(=O)c(-c3nc4c(C)cccn4c3NCc3ccco3)cc2c1" ): 95.7

Recorded inhibition (molecule CC(NC(=O)c1cc(-c2ccccc2)on1)c1ccccc1 (stereo unspecified) ): 58.1

Recorded inhibition (molecule "N#Cc1ccc(C(=O)Nc2nc(-c3cccs3)c(C(=O)C(F)(F)F)s2)cc1" ): 74.7

Recorded inhibition (molecule "O=C(NC1CC1)C1=C[C@H](c2c[nH]c3ccccc23)C[C@H](OCc2ccc(CO)cc2)O1" ): 0.14

Recorded inhibition (molecule "O=c1[nH]c(CSc2ccccc2)nc2c1oc1ccccc12" ): -3.37

Recorded inhibition (molecule "O=C(Nc1ccc(N2CCOCC2)nc1)c1c(F)cccc1F" ): -6.02

Recorded inhibition (molecule O=C1/C(=C/c2cccs2)SC(=S)N1C1CCS(=O)(=O)C1 (stereo unspecified) ): 8.4

Recorded inhibition (molecule "Cc1ccc(SCCC(=O)Nc2cc(C)on2)cc1" ): 20.7

Recorded inhibition (molecule "Cc1ccc(O)c(CNc2nc3ccccc3n2C)c1" ): 11.9

Recorded inhibition (molecule "CN(CC(=O)Nc1ccc(S(=O)(=O)N2CCCC2)cc1)Cc1ccc(Cl)c(Cl)c1" ): 25.8

Recorded inhibition (molecule COc1ccccc1P(=O)(c1ccccc1)c1ccccc1NC(C)=O (stereo unspecified) ): 10.1

Recorded inhibition (molecule "COCC(=O)Nc1nnc(COc2ccccc2)s1" ): -20.1

Recorded inhibition (molecule "COc1ccc(C(=O)c2oc3ccc(Br)cc3c2NC(C)=O)cc1" ): 10

Recorded inhibition (molecule "O=C(c1ccc(Cl)c([N+](=O)[O-])c1)N1CCN(c2ccccc2)CC1" ): -20.4

Recorded inhibition (molecule "O=C(N/N=C/c1cccc([N+](=O)[O-])c1)c1ccncc1" ): 5.76

Recorded inhibition (molecule "NC(N)=N/N=C/c1ccc(Cl)c([N+](=O)[O-])c1" ): -23.8

Recorded inhibition (molecule "FC(F)(F)c1cc(-c2cccs2)nc(NCc2ccco2)n1" ): 52.2

Recorded inhibition (molecule "O=C(CSc1nc(-c2ccco2)cc(C(F)(F)F)n1)NCc1cccs1" ): 30.9

Recorded inhibition (molecule CCCN(CCC)CC(O)COc1ccccc1C(=O)Nc1ccccc1 (stereo unspecified) ): 16.4

Recorded inhibition (molecule "Cc1ccc(COc2ccc(C(=O)NN)cc2)cc1" ): 0.74

Recorded inhibition (molecule "CS(=O)(=O)N(CC(=O)Nc1ccc(Cl)c(Cl)c1)C1CCCCC1" ): 99.8

Recorded inhibition (molecule OC(c1nnc(-c2ccccc2)o1)c1cccs1 (stereo unspecified) ): -26.1

Recorded inhibition (molecule [O-][N+]12CCCCC1CCCC2CO (stereo unspecified) ): -6.34

Recorded inhibition (molecule OC(c1ccccc1)C(CN1CCOCC1)c1ccccc1 (stereo unspecified) ): 9.34

Recorded inhibition (molecule "O=C(c1cc(-c2ccc(O)cc2)on1)N1CCCc2ccccc21" ): 40.4

Recorded inhibition (molecule C=CCn1c(SCc2nnc(-c3ccccc3)o2)nnc1C(O)c1ccccc1 (stereo unspecified) ): 14

Recorded inhibition (molecule CCN(CC)CCC(c1ccc2c(c1)OCO2)c1c(OC)cc(OC)c2c(-c3ccccc3)cc(=O)oc12 (stereo unspecified) ): -37.9

Recorded inhibition (molecule "CCNCc1cc2cc(C)ccc2[nH]c1=O" ): -7.23

Recorded inhibition (molecule "Cc1ccc2nc(-c3ccc(SCC(=O)Nc4cc(C)on4)nc3)[nH]c2c1" ): 91.1

Recorded inhibition (molecule "FC(F)(F)c1cc(-c2ccco2)nc(N2CCOCC2)n1" ): 101

Recorded inhibition (molecule O=C(NN1C(=O)C2CCCCC2C1=O)c1ccco1 (stereo unspecified) ): 6.45

Recorded inhibition (molecule "O=C(Nc1ccc2c(c1)CCC2)c1cccc(S(=O)(=O)N2CCN(c3ccc(F)cc3)CC2)c1" ): 78.2

Recorded inhibition (molecule O=C(Nc1ccccc1)C1CC(=O)n2c(nc3ccccc32)N1 (stereo unspecified) ): 3.28

Recorded inhibition (molecule "CCOC(=O)c1ccn(-c2nc(-c3ccco3)cc(C(F)(F)F)n2)n1" ): 7.61

Recorded inhibition (molecule "Cc1nc(CNS(=O)(=O)c2cc([N+](=O)[O-])ccc2C)cs1" ): 24.2
